- Method Description: Antiproliferative activity against human Hs 578T cells assessed as cell growth at 10^-7 M after 48 hrs by sulforhodamine B assay
- Format: functional
- Condition Parameters: read-out: Activity
Record form. Attribute: growth at 0.1 µM. Fill in for each entry.
Give just the number in %; leave the unit off.

Query string: Look up growth at 0.1 µM: CNC(=O)c1cc(Oc2ccc3nc(NC(=O)Nc4ccc(Cl)c(C(F)(F)F)c4)sc3c2)ccn1
Result string: 89

Query string: What do you have for CNC(=O)c1cc(Oc2ccc3nc(NC(=O)Nc4ccc(Cl)c(Cl)c4)sc3c2)ccn1 ?
Result string: 108

Query string: Request: CNC(=O)c1cc(Oc2ccc3nc(NC(=O)c4cc(C(F)(F)F)cc(C(F)(F)F)c4)sc3c2)ccn1
Result string: 93

Query string: Moving on to the next molecule: CNC(=O)c1cc(Oc2ccc3nc(NC(=O)Nc4cc(C(F)(F)F)cc(C(F)(F)F)c4)sc3c2)ccn1
Result string: 100
